Ka reference
measurementDescription: Binding affinity to heme in aqueous solution
testReadout: Ka

[
  {
    "molecule": "C=CC1CN2CC[C@H]1C[C@H]2[C@H](O)c1ccnc2ccc(OC)cc12 (single isomer, unassigned)",
    "testReadout": "Ka",
    "reportedResult": "0.2 10^5/M"
  },
  {
    "molecule": "CCN(CC)CCCCCOc1ccc2c(=O)c3ccc(OCCCCCN(CC)CC)cc3oc2c1",
    "testReadout": "Ka",
    "reportedResult": "8.2 10^5/M"
  },
  {
    "molecule": "CCN(CC)CCCCCOc1ccc2c(=O)c3ccc(OCCCCCN(CC)CC)c(F)c3oc2c1F",
    "testReadout": "Ka",
    "reportedResult": "0.6 10^5/M"
  },
  {
    "molecule": "O[C@@H](c1cc(C(F)(F)F)nc2c(C(F)(F)F)cccc12)[C@H]1CCCCN1",
    "testReadout": "Ka",
    "reportedResult": "0.1 10^5/M"
  }
]

---

IC50 reference
Tested on: Plasmodium falciparum
measurementDescription: Antimalarial activity against Plasmodium falciparum D6 in MSF assay
Assay type: functional, organism-based

[
  {
    "molecule": "O[C@@H](c1cc(C(F)(F)F)nc2c(C(F)(F)F)cccc12)[C@H]1CCCCN1 [MEFLOQUINE]",
    "IC50": "5.9 nM"
  },
  {
    "molecule": "CCN(CC)CCCCCOc1ccc2c(=O)c3ccc(OCCCCCN(CC)CC)c(F)c3oc2c1F",
    "IC50": "93 nM"
  },
  {
    "molecule": "C=CC1CN2CC[C@H]1C[C@H]2[C@H](O)c1ccnc2ccc(OC)cc12 (single isomer, unassigned) [QUININE]",
    "IC50": "11 nM"
  },
  {
    "molecule": "CCN(CC)CCCCCOc1ccc2c(=O)c3ccc(OCCCCCN(CC)CC)cc3oc2c1",
    "IC50": "180 nM"
  }
]
